Hey, just so you know, these numbers are from patent US8952024B2.

Tested on: rice (Oryza sativa)
Assay: Test B flooded paddy test
Assay type: in vivo
Conditions: 250 g ai/ha; flooded paddy test; visual rating on 0 to 100 scale (0 no effect, 100 complete control) after 13 to 15 days
Source text: Plant species in the flooded paddy test consisted of rice (Oryza sativa), umbrella sedge (Cyperus difformis), ducksalad (Heteranthera limosa) and barnyardgrass (Echinochloa crus-galli) grown to the 2-leaf stage for testing. […] Treated plants and controls were maintained in a greenhouse for 13 to 15 days, after which time all treated plants were visually evaluated and compared to controls. […]
Threshold check on Plant response rating, Flood, Rice: at or above 40 gives YES, strictly below gives NO.

Input: Exam item: decide whether the reported Plant response rating, Flood, Rice for "Cc1cccc(Cl)c1-n1c(-c2ccccc2)ncc(C(=O)C2=C(O)CCCC2=O)c1=O" is at least 40.
Output: NO

Input: Given "CCCn1c(-c2ccc(F)cc2)ncc(C(=O)C2=C(O)CCCC2=O)c1=O" , state whether its Plant response rating, Flood, Rice is at least 40.
Output: NO

Input: State whether the measured Plant response rating, Flood, Rice reaches 40, counting equality as reaching it, for "Cc1ccccc1-c1ncc(C(=O)C2=C(O)CCCC2=O)c(=O)n1-c1ccccc1"
Output: NO

Input: Is the recorded value of Plant response rating, Flood, Rice equal to or greater than 40 for this molecule? "CCCc1ncc(C(=O)C2=C(O)CCCC2=O)c(=O)n1-c1ccccc1C"
Output: NO

Input: Hi, just wondering whether "CCCCn1c(-c2cc(F)cc(F)c2)ncc(C(=O)C2=C(O)CCCC2=O)c1=O" shows Plant response rating, Flood, Rice of 40 or higher.
Output: YES

Input: API: above_or_equal(metric=Plant response rating, Flood, Rice, cutoff=40) for item "Cc1cc(-n2c(-c3ccccc3)ncc(C(=O)C3=C(O)CCCC3=O)c2=O)ccc1F"
Output: YES

Input: Reported Plant response rating, Flood, Rice reaches at least 40 for "Cc1ccccc1-n1c(-c2cccc(Cl)c2)ncc(C(=O)C2=C(O)CCCC2=O)c1=O" ?
Output: NO

Input: Is it the case that O=C1CCCC(O)=C1C(=O)c1cnc(-c2ccccc2)n(CC2CCCO2)c1=O (centres unmarked) has Plant response rating, Flood, Rice reaching or exceeding 40?
Output: NO
